- experimental_system: DCN1 (DCUND1) protein PONY domain (Homo sapiens (Human))
- Sequence (Q96GG9 60-248): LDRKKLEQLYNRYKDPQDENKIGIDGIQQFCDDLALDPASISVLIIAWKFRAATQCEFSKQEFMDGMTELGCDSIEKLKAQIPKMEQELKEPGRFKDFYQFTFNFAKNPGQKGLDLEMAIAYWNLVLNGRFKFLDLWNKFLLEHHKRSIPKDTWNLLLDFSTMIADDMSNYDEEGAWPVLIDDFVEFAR
- assay_summary: TR-FRET assay, DCN1 binding with FAM-labeled probe
- measurement_context: 24 hr after treatment with compound; read-out: TR FRET IC50 24 hr
Collected IC50 values appear next to each entry.

Some solved entries appear below for comparison.
CCN1C(=O)[C@@H](NC(=O)c2cccc(C(F)(F)F)c2)[C@@H](c2ccc(F)cc2)c2c(C(=O)N3CCNC[C@@H]3C#N)nn(C3CCOCC3)c21 [Compound I-364]
≤ 200 nM
CCN1C(=O)[C@@H](NC(=O)c2cccc(C(F)(F)F)c2)[C@@H](c2ccc(F)cc2)c2c(C(=O)N3CCCC[C@@H]3C#N)nn(-c3ccccc3)c21 [Compound I-121]
≤ 200 nM
CCN1C(=O)[C@@H](NC(=O)c2cccc(C(F)(F)F)c2)[C@@H](c2ccc(F)cc2)c2c(CN(C#N)CCCCN(C)C)nn(-c3ccccc3)c21 [Compound I-248]
≤ 200 nM

(Q) Specify IC50 for C[C@@H](NC#N)c1nn(-c2ccccc2)c2c1[C@H](c1ccc(F)cc1)[C@H](NC(=O)c1cccc(C(F)(F)F)c1)C(=O)N2CCO [Compound I-274] and stop.
(A) ≤ 200 nM

(Q) Specify IC50 for CCN1C(=O)[C@@H](NC(=O)c2cccc(C(F)(F)F)c2)[C@@H](c2ccc(F)cc2)c2c(C(=O)N[C@@H](C)C#N)nn(-c3ccccc3)c21 [Compound I-254] and stop.
(A) ≤ 200 nM

(Q) Specify IC50 for CCN1C(=O)[C@@H](NC(=O)c2cccc(C(F)(F)F)c2)[C@@H](C2CC2)c2c(C(=O)N3[C@H](C)CC[C@H]3C#N)nn(C3CCOCC3)c21 [Compound I-621] and stop.
(A) 1000 to 3000 nM

(Q) Specify IC50 for CCN1C(=O)[C@@H](NC(=O)COc2ccccc2)[C@@H](C2CC2)c2c(C(=O)N3[C@H](C#N)C[C@H]4C[C@H]43)nn(C3CCOCC3)c21 [Compound I-628] and stop.
(A) 1000 to 3000 nM

(Q) Specify IC50 for CCN1C(=O)[C@@H](NC(=O)c2cccc(C(F)(F)F)c2)[C@@H](c2ccc(F)cc2)c2c(C(=O)N3CC[C@H](F)[C@H]3C#N)nn(C3CCOCC3)c21 [Compound I-694] and stop.
(A) ≤ 200 nM

(Q) Specify IC50 for CCN1C(=O)[C@@H](NC(=O)c2cccc(C(F)(F)F)c2)[C@@H](c2ccc(F)cc2)c2c(CN(C#N)CCCN3CCOCC3)nn(-c3ccccc3)c21 [Compound I-496] and stop.
(A) ≤ 200 nM

(Q) Specify IC50 for C/C=C/C(=O)Nc1nn(-c2ccccc2)c2c1[C@H](c1ccc(F)cc1)[C@H](NC(=O)c1cccc(C(F)(F)F)c1)C(=O)N2CC (racemic) [Compound I-62] and stop.
(A) 200 to 1000 nM

(Q) Specify IC50 for CCN1C(=O)[C@@H](NC(=O)CCc2cnn(C)c2)[C@@H](C2CC2)c2c(C(=O)N3[C@H](C#N)C[C@H]4C[C@H]43)nn(C3CCOCC3)c21 [Compound I-433] and stop.
(A) 1000 to 3000 nM
